Cited source for all entries: patent US10780090B2

Biological target: recombinant human SAE enzyme (Homo sapiens (Human), UniProt Q9UBT2)
Sequence (Q9UBT2 whole entry): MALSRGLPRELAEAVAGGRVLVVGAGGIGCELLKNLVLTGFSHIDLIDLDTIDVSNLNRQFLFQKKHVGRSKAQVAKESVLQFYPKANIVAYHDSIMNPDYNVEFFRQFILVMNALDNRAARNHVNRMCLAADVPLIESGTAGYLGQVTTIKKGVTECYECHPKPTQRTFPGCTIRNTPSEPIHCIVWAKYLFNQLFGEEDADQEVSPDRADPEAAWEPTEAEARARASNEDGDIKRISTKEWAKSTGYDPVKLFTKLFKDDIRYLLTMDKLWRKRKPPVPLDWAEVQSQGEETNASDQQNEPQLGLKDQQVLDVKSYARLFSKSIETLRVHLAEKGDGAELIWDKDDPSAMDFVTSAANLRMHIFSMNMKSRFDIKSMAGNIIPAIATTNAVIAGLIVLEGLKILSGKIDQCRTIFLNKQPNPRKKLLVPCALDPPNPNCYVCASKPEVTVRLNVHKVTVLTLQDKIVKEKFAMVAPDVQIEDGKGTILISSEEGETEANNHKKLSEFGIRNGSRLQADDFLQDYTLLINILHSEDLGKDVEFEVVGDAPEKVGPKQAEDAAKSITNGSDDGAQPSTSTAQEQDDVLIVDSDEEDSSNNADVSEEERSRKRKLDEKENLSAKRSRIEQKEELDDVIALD
Sequence (Q9UBE0 whole entry partner): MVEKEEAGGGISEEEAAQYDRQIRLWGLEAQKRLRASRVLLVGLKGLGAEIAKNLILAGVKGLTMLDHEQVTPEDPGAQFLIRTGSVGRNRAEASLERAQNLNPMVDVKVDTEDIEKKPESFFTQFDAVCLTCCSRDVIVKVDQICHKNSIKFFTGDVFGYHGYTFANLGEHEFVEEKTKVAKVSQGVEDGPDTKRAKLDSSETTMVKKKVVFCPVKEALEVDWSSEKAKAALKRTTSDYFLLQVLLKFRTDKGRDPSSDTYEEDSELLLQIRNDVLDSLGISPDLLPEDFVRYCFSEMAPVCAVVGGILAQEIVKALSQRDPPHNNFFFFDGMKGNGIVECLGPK
Assay: SAE HTRF enzyme assay
Type: biochemical
Conditions: Concentration 0.111 μM; read-out: Percent Inhibition

[
  {
    "molecule smiles": "NS(=O)(=O)OC[C@H]1C[C@@H](Nc2ncncc2C(=O)c2cc(CO)co2)C[C@@H]1O",
    "inhibition at 0.111 µM": "36%"
  },
  {
    "molecule smiles": "Cc1cccc(Cc2coc(C(=O)c3cncnc3N[C@@H]3C[C@H](COS(N)(=O)=O)[C@@H](O)C3)c2)c1",
    "inhibition at 0.111 µM": "98%"
  },
  {
    "molecule smiles": "Cc1sc(C(=O)c2cncnc2N[C@@H]2C[C@H](COS(N)(=O)=O)[C@@H](O)C2)cc1Cn1cc(Cl)cn1",
    "inhibition at 0.111 µM": "97%"
  },
  {
    "molecule smiles": "CCc1cccc(Cc2cc(C(=O)c3cncnc3N[C@@H]3C[C@H](COS(N)(=O)=O)[C@@H](O)C3)sc2C)c1",
    "inhibition at 0.111 µM": "98%"
  },
  {
    "molecule smiles": "CCOc1ccccc1OCc1csc(C(=O)c2cncnc2N[C@@H]2C[C@H](COS(N)(=O)=O)[C@@H](O)C2)c1",
    "inhibition at 0.111 µM": "92%"
  },
  {
    "molecule smiles": "COCc1ccc(C(=O)c2cncnc2N[C@@H]2C[C@H](COS(N)(=O)=O)[C@@H](O)C2)o1",
    "inhibition at 0.111 µM": "43%"
  },
  {
    "molecule smiles": "NS(=O)(=O)OC[C@H]1C[C@@H](Nc2ncncc2C(=O)c2cc(Cc3cccc(Br)n3)c(Cl)s2)C[C@@H]1O",
    "inhibition at 0.111 µM": "98%"
  }
]

* * *

Molecular target: recombinant human SAE enzyme (Homo sapiens (Human), UniProt Q9UBT2)
Test: SAE HTRF enzyme assay
Format: biochemical
Conditions: SAE inhibition; class symbols, legend in nM

[
  {
    "compound": "Cc1sc(C(=O)c2cncnc2N[C@@H]2C[C@H](COS(N)(=O)=O)[C@@H](O)C2)cc1[C@@H]1OCCc2ccc(Cl)c(F)c21 (mixture of isomers)",
    "IC50": "< 10 nM"
  },
  {
    "compound": "Cc1sc(C(=O)c2cncnc2N[C@@H]2C[C@H](COS(N)(=O)=O)[C@@H](O)[C@H]2O)nc1Cc1cccc(Br)c1",
    "IC50": "< 10 nM"
  },
  {
    "compound": "NS(=O)(=O)OC[C@H]1C[C@@H](Nc2ncncc2C(=O)c2ccc([C@@H]3OCCCc4ccc(Cl)cc43)s2)C[C@@H]1O (single isomer, unassigned) [I-343a]",
    "IC50": "10 to 100 nM"
  },
  {
    "compound": "NS(=O)(=O)OC[C@H]1C[C@@H](Nc2ncncc2C(=O)c2ccc([C@@H]3OCCCc4ccc(Cl)cc43)s2)C[C@@H]1O (single isomer, unassigned) [I-343b]",
    "IC50": "10 to 100 nM"
  },
  {
    "compound": "Cc1sc(C(=O)c2cncnc2N[C@@H]2C[C@H](COS(N)(=O)=O)[C@@H](O)C2)nc1C1OCCc2ccc(Cl)cc21 (single isomer, unassigned) [I-300b]",
    "IC50": "< 10 nM"
  },
  {
    "compound": "NS(=O)(=O)OC[C@H]1C[C@@H](Nc2ncncc2C(=O)c2cc([C@@H]3CCc4ccc(Cl)cc43)cs2)C[C@@H]1O (mixture of isomers) [I-349]",
    "IC50": "100 to 1000 nM"
  }
]
